molecular target: Serine/threonine-protein kinase pim-2 (Homo sapiens); details: at 1 µM;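 note: each value is a mean of the inhibition measurements against the kinase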
EXPERIMENTAL_ENDPOINT: inhibition (%)
Give bare numbers, in %.

In [3]: df
Out[3]:
                                     smiles  reported_value
0  OCCCNc1nccc(-c2c(-c3ccc(F)cc3)nn3cc(C(F)(F)F)ccc23)n1           -0.96
1  CS(=O)(=O)CCNCc1ccc(-c2ccc3ncnc(Nc4ccc(OCc5ccccc5)cc4)c3c2)o1            0.74
2  COc1ccc(-c2nn3ncccc3c2-c2ccnc(Nc3ccc(F)c(F)c3)n2)cc1             4.2
3  COc1ccccc1-c1cc(/C=C2\C(=O)Nc3ncc(Br)cc32)cc(Br)c1O           -0.06

Now, please, on to the next molecule.
Entry COc1cc(N2CCN(C(C)C)CC2)ccc1Nc1nc(Nc2cccc(F)c2C(=O)O)c2cc[nH]c2n1 , inhibition reported as 0.53

====

biological target: Cyclin-dependent kinase 5 (Homo sapiens) (UniProt Q00535); conditions: at 0.1 µM;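 note: enzyme tested as the CDK5/p35 complex, values are mean percent inhibition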
Sequence (Q00535 whole entry, looked up): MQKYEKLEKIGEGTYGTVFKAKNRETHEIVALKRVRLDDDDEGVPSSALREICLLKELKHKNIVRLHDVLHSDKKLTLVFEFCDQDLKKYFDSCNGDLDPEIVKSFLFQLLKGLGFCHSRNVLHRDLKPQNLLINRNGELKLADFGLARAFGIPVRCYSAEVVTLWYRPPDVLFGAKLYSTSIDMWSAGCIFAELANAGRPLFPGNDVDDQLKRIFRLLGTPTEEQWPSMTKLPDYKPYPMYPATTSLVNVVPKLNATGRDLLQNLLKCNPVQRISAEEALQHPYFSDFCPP
EXPERIMENTAL_ENDPOINT: inhibition (%)
Numbers only, in %.

Solved entries (count: 4):
In [3]: df
Out[3]:
                                     smiles  reported_value
0  CCCNc1cccc(-n2ncc3c(N/N=C/c4ccncc4)ncnc32)c1            1.35
1  NS(=O)(=O)c1ccc(N/N=C2\C(=O)Nc3ccc(C(=O)NCc4ccncc4)cc32)cc1            47.7
2  Cc1nnc(-c2cccc(-c3ccc(C(=O)NCC4CC4)cc3)c2)o1            0.47
3    Cc1ccc(-c2cc3c(NC(=O)C4CC4)ncnc3o2)cc1            1.87

Next molecule, inhibition to be filled in.
Noted for COc1ccc2ncn(-c3cc(O[C@H](C)c4ccccc4C(F)(F)F)c(C(N)=O)s3)c2c1 : its inhibition reads 0.13

====

molecular target: High affinity nerve growth factor receptor (Homo sapiens) (UniProt P04629); conditions: at 0.1 µM;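 note: each value is a mean of replicate percent inhibition readings against TRKA kinase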
Sequence (P04629 33-796 limits assumed): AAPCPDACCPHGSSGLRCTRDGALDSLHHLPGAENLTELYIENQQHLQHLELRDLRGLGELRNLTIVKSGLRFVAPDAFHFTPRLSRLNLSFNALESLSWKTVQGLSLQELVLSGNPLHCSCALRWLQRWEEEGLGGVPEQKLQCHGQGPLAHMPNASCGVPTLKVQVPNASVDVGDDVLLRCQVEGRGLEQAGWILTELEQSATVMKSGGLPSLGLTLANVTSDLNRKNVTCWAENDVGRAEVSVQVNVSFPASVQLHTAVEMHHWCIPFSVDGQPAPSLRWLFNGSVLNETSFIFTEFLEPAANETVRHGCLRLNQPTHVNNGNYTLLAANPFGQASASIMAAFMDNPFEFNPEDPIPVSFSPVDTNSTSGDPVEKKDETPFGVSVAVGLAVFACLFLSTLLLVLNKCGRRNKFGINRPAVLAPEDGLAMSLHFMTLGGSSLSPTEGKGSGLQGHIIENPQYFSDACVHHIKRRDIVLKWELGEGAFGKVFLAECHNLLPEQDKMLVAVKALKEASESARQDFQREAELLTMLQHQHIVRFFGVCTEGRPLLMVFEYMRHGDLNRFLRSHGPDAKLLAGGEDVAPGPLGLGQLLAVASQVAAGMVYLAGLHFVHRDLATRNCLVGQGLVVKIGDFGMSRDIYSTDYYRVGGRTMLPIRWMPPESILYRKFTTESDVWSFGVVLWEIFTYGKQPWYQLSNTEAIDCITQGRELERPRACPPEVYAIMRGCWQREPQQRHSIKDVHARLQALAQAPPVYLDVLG
Would you mind telling me the reported inhibition of each entry?
One number for each entry, in %.

Example cases with answers are listed next.
In [3]: df
Out[3]:
                                     smiles  experimental_endpoint  reported_value
0         COc1ccc(Nc2ncc(-c3ccccc3)o2)cc1OC             inhibition           -1.61
1  COc1cc(N2CCN(C(C)C)CC2)ccc1Nc1nc(Nc2cccc3ncccc23)c2cc[nH]c2n1             inhibition            1.86

Look up inhibition for the entries below, preserving their order.
1. N#Cc1cccc(Nc2ncc(-c3ccccc3)o2)c1
2. CNC(=O)c1ncccc1Nc1nc(Nc2cc3c(cc2OC)CCCN3C(=O)CN(C)C)nc2[nH]ccc12
3. COc1cc(Nc2ncc(-c3ccccc3)o2)cc(OC)c1
4. O=C(Nc1n[nH]c2nnc(-c3cccnc3)cc12)C1CC1

Output:
-0.7
5.07
3.5
0.12

====

Can you tell me inhibition for the items I'm about to list?
biological target: Ribosomal protein S6 kinase alpha-6 (Homo sapiens); settings: at 0.1 µM;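 note: reported value is the mean inhibition of RSK4, from the GSK PKIS kinase inhibitor screen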
One number for each entry, in %.

In [3]: df
Out[3]:
                                     smiles  experimental_endpoint  measurement_units  reported_value
0  CS(=O)(=O)Nc1ccc(-c2ccc3c(NC(=O)C4CC4)n[nH]c3c2)cc1             inhibition                  %            1.37
1  Cc1cc(O)cc(C)c1/C=C/c1cncc(C(=O)OC(C)(C)C)c1             inhibition                  %            0.33
2  CS(=O)(=O)CCNCc1ccc(-c2ccc3ncnc(Nc4ccc(OCc5ccccc5)cc4)c3c2)o1             inhibition                  %            2.96

# map each compound to its inhibition
1. CC(C)c1ccc(-c2cc(-c3c[nH]nc3-c3ccccn3)ccn2)cc1
2. N#Cc1cccc(Nc2ncc(-c3ccccc3)o2)c1
3. Cc1c2ccc(N(C)c3ccnc(Nc4cccc(S(N)(=O)=O)c4)n3)cc2nn1C

Output:
0.05
-0.19
2.42

Respectfully, I request inhibition for each entry included below.
1. CNC(=O)c1ncccc1Nc1nc(Nc2cc3c(cc2OC)CCCN3C(=O)CN(C)C)nc2[nH]ccc12
2. Fc1ccc(Nc2nccc(-c3c(-c4ccc(C(F)(F)F)cc4)nn4ncccc34)n2)cc1F
3. COc1c(C(N)=O)cc(-c2ccc(Cl)cc2)cc1-c1ccc(S(N)(=O)=O)cc1
4. CCCNc1cccc(-n2ncc3c(N/N=C/c4ccncc4)ncnc32)c1

Output:
3.92
1.29
2.25
0.53

====

biological target: Protein kinase C alpha type (Homo sapiens) (UniProt P17252); conditions: at 1 µM;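 note: reported value is the mean inhibition, measured within the GSK PKIS screening panel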
EXPERIMENTAL_ENDPOINT: inhibition (%)
Numbers only, in %.

In [3]: df
Out[3]:
                                     smiles  experimental_endpoint  reported_value
0  CN(c1ccc(NC(=O)NCCN2CCOCC2)cc1)c1ccnc(Nc2ccc(CS(C)(=O)=O)cc2)n1             inhibition           -0.33
1  Fc1cccc(COc2ccc(Nc3ncncc3C#Cc3ccccc3)cc2Cl)c1             inhibition            1.01
2  NC(=O)c1ccc2c(-c3ccnc(NCCCO)n3)c(-c3ccc(F)cc3)nn2c1             inhibition              11
3  CCCNc1cccc(-n2ncc3c(N/N=C/c4ccncc4)ncnc32)c1             inhibition            1.45
4  COc1ccc2ncn(-c3cc(O[C@H](C)c4ccccc4C(F)(F)F)c(C(N)=O)s3)c2c1             inhibition            0.04

For each of the items listed, what is its inhibition?
1. CNC(=O)c1cncc(/C=C/c2ccccc2C)c1
2. COc1cc(N2CCN(C(C)C)CC2)ccc1Nc1nc(Nc2cccc3ncccc23)c2cc[nH]c2n1
3. COc1ccccc1-c1cc(/C=C2\C(=O)Nc3ncc(Br)cc32)cc(Br)c1O
4. O=C(O[C@H]1CN[C@H](C#Cc2cc3ncnc(Nc4ccc5c(ccn5Cc5cc(F)ccc5F)c4)c3s2)C1)N1CCOCC1

Output:
[1.68, 1.71, 1.73, 2.63]

====

I'd be grateful if you could share measured inhibition for these entries.
Target: Calcium/calmodulin-dependent protein kinase type IV (Homo sapiens);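 note: each value is the mean of the measured CAMK4 inhibition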
Sequence (whole entry): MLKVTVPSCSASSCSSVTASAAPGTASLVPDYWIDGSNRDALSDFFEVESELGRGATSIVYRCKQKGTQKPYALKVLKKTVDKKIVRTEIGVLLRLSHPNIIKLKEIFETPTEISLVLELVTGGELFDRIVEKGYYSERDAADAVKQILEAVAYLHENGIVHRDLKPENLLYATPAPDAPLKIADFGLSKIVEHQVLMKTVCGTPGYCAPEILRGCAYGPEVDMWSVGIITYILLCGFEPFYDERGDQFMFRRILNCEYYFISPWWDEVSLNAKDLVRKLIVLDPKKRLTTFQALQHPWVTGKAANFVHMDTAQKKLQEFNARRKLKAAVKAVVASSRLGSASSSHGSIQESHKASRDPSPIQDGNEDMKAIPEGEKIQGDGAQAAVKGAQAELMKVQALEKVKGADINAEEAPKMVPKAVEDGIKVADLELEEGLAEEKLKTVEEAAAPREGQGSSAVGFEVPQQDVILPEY
Details: at 1 µM
One number for each entry, in %.

Some compounds with recorded inhibition:
>>> print(df.to_string())
                                     smiles  experimental_endpoint  reported_value
0        FC(F)(F)CNc1nccc(-c2cnn3ncccc23)n1             inhibition           -1.75
1  COc1ccccc1-c1cc(/C=C2\C(=O)Nc3ncc(Br)cc32)cc(Br)c1O             inhibition            1.67
2                 Cn1c(-c2nonc2N)nc2cnccc21             inhibition            2.02

Need inhibition for each of these compounds.
1. Cc1cc(O)cc(C)c1/C=C/c1cncc(C(N)=O)c1
2. NS(=O)(=O)c1ccc(N/N=C2\C(=O)Nc3ccc(C(=O)NCc4ccncc4)cc32)cc1
3. Fc1cccc(COc2ccc(Nc3ncncc3C#Cc3ccccc3)cc2Cl)c1

Output:
1. 1.57
2. -4.16
3. -4.84

Could I get inhibition for every one of these entries?
1. COC(=O)Nc1nc2ccc(Oc3ccc(NC(=O)Nc4cc(C(F)(F)F)ccc4F)cc3)cc2s1
2. CS(=O)(=O)CCNCc1ccc(-c2ccc3ncnc(Nc4ccc(OCc5ccccc5)cc4)c3c2)o1
3. Cc1nnc(-c2cccc(-c3ccc(C(=O)NCC4CC4)cc3)c2)o1
4. Cc1c2ccc(N(C)c3ccnc(Nc4cccc(S(N)(=O)=O)c4)n3)cc2nn1C

Output:
1: 2.48; 2: -0.36; 3: -2.97; 4: 0.2
